Target: human muscarinic M1 receptor (Homo sapiens)
Construct: expressed in transfected cells
Sequence (P11229 whole entry): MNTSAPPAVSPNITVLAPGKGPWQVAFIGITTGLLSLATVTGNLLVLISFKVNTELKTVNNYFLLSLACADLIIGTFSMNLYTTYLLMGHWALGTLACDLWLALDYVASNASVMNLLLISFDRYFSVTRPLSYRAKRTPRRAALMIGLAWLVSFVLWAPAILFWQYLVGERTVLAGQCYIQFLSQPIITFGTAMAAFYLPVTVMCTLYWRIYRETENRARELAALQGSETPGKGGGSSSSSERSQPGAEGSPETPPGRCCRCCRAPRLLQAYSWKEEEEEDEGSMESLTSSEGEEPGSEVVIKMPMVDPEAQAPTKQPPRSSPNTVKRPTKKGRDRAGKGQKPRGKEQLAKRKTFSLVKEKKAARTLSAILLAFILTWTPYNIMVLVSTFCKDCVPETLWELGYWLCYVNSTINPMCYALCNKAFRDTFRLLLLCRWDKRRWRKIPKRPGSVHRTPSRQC
Assay: Alphascreen Surefire phospho-ERK1/2 functional assay, M1
Type: cell-based
Conditions: CHO, read-out: % Emax cf. ACh, M1
assayMetric: Emax (%)
Give bare numbers, in %.

// query Identify measured Emax corresponding to [2H]C([2H])([2H])C([2H])([2H])OC(=O)N1CCC2(CC(N3CCC(C(=O)NC4(C)CCC4)CC3)C2)C1 (single isomer, unassigned) [Example 29 - Isomer 2]
// result 107

// query Identify measured Emax corresponding to [2H]C([2H])([2H])C1(NC(=O)C2CCN(C3CC4(CCN(C(=O)OC([2H])([2H])C([2H])([2H])[2H])C4)C3)CC2)CCC1 (single isomer, unassigned) [Example 30 - Isomer 2]
// result 105

For each of the molecules below, note its Emax.
1. CCOC(=O)N1CCC2(CC(N3CCC(C(=O)NCC4CCC4)CC3)C2)C1 (mixture of isomers) [Example 19 - mixture of diastereomers]
2. [2H]C([2H])([2H])C([2H])([2H])OC(=O)N1CCC2(CC(N3CCC(C(=O)NC4(C([2H])([2H])[2H])C([2H])([2H])C([2H])([2H])C4([2H])[2H])CC3)C2)C1 (mixture of isomers) [Example 31 - mixture of diastereomers]
3. C#CCOC(=O)N1CC2(CCC(N3CCC(C(=O)NC4(C)CCC4)CC3)C2)C1 (racemic) [Example 13 - racemic]

// result
[109, 110, 139]

These data points were gathered from patent US9266857B2.
